# PROCEDURE_TEXT: Human HepG2 cell viability assay in 384 well format
# Type: toxicity, cell-based
# Parameters: dose 125 nL, time 70.5 hour; concentration not given beside the values
# CONDITION_NOTES: HepG2 cells, read-out: Inhibition
PROPERTY_MEASURED: cytotoxicity at 70.5 h (%)
Write the answer as a number in %, unit excluded.

The cases that follow already have their cytotoxicity at 70.5 h on record.
>>> print(df.to_string())
                                   molecule  readout_number
0     CN1CCC2(CC1)CCN(C(=O)c1onc3ccccc13)C2           -6.04
1      CN(Cc1nnc(C2CC2)o1)Cc1ccccc1N1CCOCC1           -4.09
2  Cn1ccnc1NC[C@@H]1CCC[C@@H]2CN(CC3CC3)C[C@@H]21           -9.55
3  CN1CCN(Cc2noc(-c3cc(-c4ccccc4F)n[nH]3)n2)CC1            17.5
4  COc1ccc(COCC(O)CN(C)c2ccc(C)cc2C)cc1 (stereo unspecified)           0.463

INPUT: For the molecule CCOC(=O)Cn1cnc2nc3n(c2c1=O)CCC3 , what cytotoxicity at 70.5 h is on record?
OUTPUT: -2.23
